# TEST_SYSTEM: TrkB (Homo sapiens, UniProt Q16620)
# Sequence (Q16620 32-822): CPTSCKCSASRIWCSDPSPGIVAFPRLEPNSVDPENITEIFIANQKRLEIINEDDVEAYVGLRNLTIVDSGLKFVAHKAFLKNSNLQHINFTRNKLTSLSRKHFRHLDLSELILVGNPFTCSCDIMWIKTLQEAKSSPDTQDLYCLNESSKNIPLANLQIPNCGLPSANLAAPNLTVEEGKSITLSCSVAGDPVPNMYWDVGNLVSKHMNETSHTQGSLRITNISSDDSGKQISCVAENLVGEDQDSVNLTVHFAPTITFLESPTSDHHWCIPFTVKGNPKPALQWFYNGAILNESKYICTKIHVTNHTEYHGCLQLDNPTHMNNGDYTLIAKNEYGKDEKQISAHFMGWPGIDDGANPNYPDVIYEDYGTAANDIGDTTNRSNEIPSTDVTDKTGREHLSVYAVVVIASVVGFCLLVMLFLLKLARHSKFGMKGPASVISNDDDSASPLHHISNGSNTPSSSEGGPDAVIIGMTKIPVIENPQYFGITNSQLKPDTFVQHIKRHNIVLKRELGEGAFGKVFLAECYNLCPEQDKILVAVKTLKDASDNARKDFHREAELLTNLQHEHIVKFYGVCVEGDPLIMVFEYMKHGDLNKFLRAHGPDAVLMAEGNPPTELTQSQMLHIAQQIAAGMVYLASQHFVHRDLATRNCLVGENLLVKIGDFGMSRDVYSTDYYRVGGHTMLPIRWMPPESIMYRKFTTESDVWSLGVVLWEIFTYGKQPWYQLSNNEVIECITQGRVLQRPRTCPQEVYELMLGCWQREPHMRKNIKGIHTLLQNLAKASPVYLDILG
# EXPERIMENT_SUMMARY: HTRF KinEASE kinase assay, recombinant Human TRK enzyme, TrkB (NTRK2)
# CONDITIONS_USED: NTRK2 1 nM, read-out: TrkB Enz
# Protocol: A suitable assay for determining the Trk inhibition activity of a compound is detailed herein below. To determine the IC50 of small molecule compounds for the Human TRK receptors, HTRF® KinEASE™ kinase kits from Cisbio were used. Assays were carried out in low volume, black 384-well plates. Recombinant Human TRK enzymes (Invitrogen) were incubated in the presence or absence of the compound (11-point dose response with FAC as 10 μM) for 30 minutes at 23° C. […]
Each record is given condition met if its reported IC50 is strictly below 3 nM. Records at or above 3 nM are given condition not met.

// known answers, use as guide
CSc1ccc(F)cc1[C@H]1CCCN1c1ccc2ncc(C(=O)N[C@H]3CCN(Cc4ccc(F)c(O)c4)C3)n2n1 [Example 2]: condition not met
CSc1cc(F)cc([C@H]2C[C@H](F)CN2c2ccc3ncc(C(=O)N[C@H]4CCN(Cc5cccc(C(=O)O)c5)C4)n3n2)c1 [Example 29]: condition not met
CSc1cc(F)cc([C@H]2C[C@H](F)CN2c2ccc3ncc(C(=O)NC4CCN(Cc5cccc(O)c5)CC4)n3n2)c1 [Example 22]: condition met
CSc1ccc(F)cc1[C@H]1C[C@H](F)CN1c1ccc2ncc(C(=O)N[C@H]3CCN(Cc4ccc(F)c(O)c4)C3)n2n1 [Example 11]: condition met
CSc1cc(F)cc([C@H]2C[C@H](F)CN2c2ccc3ncc(C(=O)N[C@@H]4COCCN(Cc5ccc(F)c(O)c5)C4)n3n2)c1 (single isomer, unassigned) [Example 24]: condition not met

Here's the next entry for you.
Field: below-cutoff. Rule: recorded IC50 strictly less than 3 nM. Subject: CCOC(=O)c1cccc(CN2CC[C@H](NC(=O)c3cnc4ccc(N5C[C@@H](F)C[C@@H]5c5cc(F)ccc5SC)nn34)C2)c1 [Example 13]
condition met
